Hello, the source for this data is PubChem BioAssay AID485346, in case you need it.

Study System: Protein Mdm4 (Homo sapiens) + E3 ubiquitin-protein ligase Mdm2 (Homo sapiens) (UniProt O15151+Q00987)
Sequence (O15151 whole entry, looked up): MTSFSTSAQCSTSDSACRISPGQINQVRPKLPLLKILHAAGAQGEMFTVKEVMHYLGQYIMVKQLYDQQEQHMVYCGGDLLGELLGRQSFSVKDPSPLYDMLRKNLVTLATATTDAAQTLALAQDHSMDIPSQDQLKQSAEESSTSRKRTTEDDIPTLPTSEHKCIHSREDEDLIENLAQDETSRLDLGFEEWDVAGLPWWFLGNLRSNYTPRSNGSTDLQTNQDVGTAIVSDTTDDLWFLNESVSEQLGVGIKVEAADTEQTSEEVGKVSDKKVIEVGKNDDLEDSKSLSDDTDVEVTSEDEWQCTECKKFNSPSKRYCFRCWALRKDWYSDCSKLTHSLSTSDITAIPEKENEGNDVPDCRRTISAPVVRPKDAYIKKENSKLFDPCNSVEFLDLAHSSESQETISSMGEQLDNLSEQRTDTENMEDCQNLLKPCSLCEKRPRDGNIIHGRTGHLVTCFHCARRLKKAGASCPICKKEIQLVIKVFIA
Sequence (Q00987 whole entry, looked up): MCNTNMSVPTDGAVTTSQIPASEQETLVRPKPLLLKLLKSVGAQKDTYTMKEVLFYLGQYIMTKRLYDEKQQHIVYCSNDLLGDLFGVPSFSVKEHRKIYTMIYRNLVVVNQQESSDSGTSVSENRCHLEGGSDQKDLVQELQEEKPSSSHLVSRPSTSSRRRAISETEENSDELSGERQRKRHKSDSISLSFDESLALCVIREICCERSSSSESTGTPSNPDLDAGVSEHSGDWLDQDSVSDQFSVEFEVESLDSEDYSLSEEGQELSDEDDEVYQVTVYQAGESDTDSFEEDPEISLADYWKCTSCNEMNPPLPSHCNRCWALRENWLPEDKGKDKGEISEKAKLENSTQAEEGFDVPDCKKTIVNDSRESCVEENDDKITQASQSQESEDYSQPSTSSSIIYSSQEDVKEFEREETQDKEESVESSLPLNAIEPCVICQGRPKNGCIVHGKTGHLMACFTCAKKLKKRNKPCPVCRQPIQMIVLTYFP
Assay Text: inhibitors of human Mdm2-MdmX association, primary screen, cell-based, luminescence, split luciferase, SaOS-2, uHTS (AID 485346)
Condition Description: SaOS-2 split-luciferase Mdm2/MdmX complementation, at 8 µM, hits give high values
The campaign covered roughly 330,000 compounds. About 10,000 (3%) were called active. Shown is part of a subset that was picked to be rich in actives.
Decision: inhibition compared against 20%; not below it gives true (1), below it gives false (0).

Identify whether the reported inhibition of the following compound is 20% or greater: `CCCCn1c(N)c(N(CCOC)C(=O)CSCC(=O)Nc2cccc(C)c2)c(=O)[nH]c1=O`
false (0)

Please check the record COc1ccc(C2CC(c3ccccc3)=NN2C(=O)c2ccc(Cl)c([N+](=O)[O-])c2)cc1 (stereo not drawn) and state if its inhibition is at or above 20%.
true (1)

Is inhibition at least 20%? Consider `Nc1nc(COC(=O)CCC(=O)c2ccc(Cl)cc2)nc(Nc2ccccc2)n1`
false (0)

Decide: is the reported value of inhibition for Cc1ccc(N2CC(C(=O)NCCS(=O)(=O)N3CCN(c4ccccc4)CC3)CC2=O)cc1 (stereo not drawn) equal to or greater than 20%?
true (1)

Is reported inhibition greater than or equal to 20% here: `O=C(NC(=O)N1CCSCC1)c1c(Cl)cccc1Cl`
false (0)

Entry `O=C(Nc1nc(-c2cccnc2)cs1)c1ccccc1F` : is its inhibition no less than 20%?
false (0)

In plain terms: is recorded inhibition at least 20% for `COc1ccc(S(=O)(=O)Nc2ccc3c(c2)OCO3)cc1Cl` ?
false (0)

Decide: inhibition of `O=C1CCC/C=C/C[C@@H](CC(=O)N(CCO)Cc2ccccc2)C(=O)NC[C@H](c2ccccc2)O1` >= 20%?
false (0)

Identify whether the reported inhibition of the following compound is 20% or greater: `Cc1cccc(NC(=O)C2CCN(S(=O)(=O)c3cccc4cccnc34)CC2)c1`
false (0)

Decide: is the reported value of inhibition for `O=C(COC(=O)c1cccnc1Cl)Nc1ccc(S(=O)(=O)N2CCOCC2)cc1` equal to or greater than 20%?
false (0)

Check this compound for inhibition at or above 20%: `Cc1cccc(-c2oc3ccc(-c4ccc5c(c4)OCO5)cc3c2C#Cc2cncn2C)c1`
true (1)

Tell me whether inhibition is at least 20% here: `OCCNCc1cccc(OCc2ccccc2Cl)c1`
true (1)

Hi, just wondering whether `O=C(NN1CCOCC1)c1cccc(F)c1` shows inhibition of 20% or higher.
false (0)

Quick check: does `COc1ccc(CNc2nc(NCc3ccc(OC)cc3)c3ncn(C4CCCC4)c3n2)cc1` have inhibition greater than or equal to 20%?
true (1)

Assess whether reported inhibition for `Cc1ccccc1NC(=O)CSc1nc2ccc(Nc3nc(N4CCOCC4)nc(N4CCOCC4)n3)cc2s1` sits at 20% or higher.
true (1)

Record `O=C(CCc1nnc(Cc2ccc3c(c2)OCO3)o1)NCCc1ccccc1Cl` ; criterion: inhibition no lower than 20%. Met?
false (0)

Does `O=S(=O)(NCCS(=O)(=O)N1CCN(c2ccccc2)CC1)c1ccc(F)cc1` have a reported inhibition of at least 20%?
true (1)

I'd appreciate it if you could say whether `COCCCNC(=O)CN1CCN(Cc2ccccc2Cl)C1=O` has inhibition at least equal to 20%.
false (0)

Is reported inhibition greater than or equal to 20% here: `CN(Cc1ccccc1)S(=O)(=O)c1nnc(NC(=O)c2ccccc2F)s1`
false (0)

Is the recorded value of inhibition equal to or greater than 20% for this compound? `O=C(Nc1ccccn1)C1CCN(S(=O)(=O)c2ccccc2)CC1`
false (0)

Could you tell me if the measured inhibition of O=C1NC(c2cc3c(cc2Cl)OCO3)Oc2ccccc21 (stereo not drawn) reaches 20% or more?
false (0)

Confirm if inhibition reported for the compound CC(C)(Oc1ccc(C2CC2(Cl)Cl)cc1)C(=O)O (stereo not drawn) is 20% or above.
true (1)

Confirm if inhibition reported for the compound O=C(NCc1ccccc1Cl)C(=O)NCC1CCCN1S(=O)(=O)c1cccs1 (stereo not drawn) is 20% or above.
false (0)

Answer whether inhibition of `CCCCn1c(N)c(N(CC(C)C)C(=O)c2ccc(Br)o2)c(=O)[nH]c1=O` is greater than or equal to 20%.
true (1)

Can `COc1ccc(C#Cc2c(-c3ccc(OC)cc3)oc3ccc(-c4ccc5c(c4)OCO5)cc23)cc1` be said to have inhibition at or above 20%?
false (0)

Quick check: does `C=CCOc1c2ccc(C(=O)N(CC)c3ccc(OC)cc3)cc2nn1C` have inhibition greater than or equal to 20%?
false (0)

Determine whether this compound has inhibition no lower than 20%: `O=C(Cn1cnc2c(nnn2Cc2ccc(F)cc2)c1=O)NCc1ccc2c(c1)OCO2`
false (0)

Record `Clc1cccc(Cl)c1OCCOCCNCc1ccccc1` ; criterion: inhibition no lower than 20%. Met?
true (1)

In plain terms: is recorded inhibition at least 20% for `Cc1ccc2c(c1)N(CCCC(=O)NCc1cccnc1)C(=O)CO2` ?
false (0)

Does CC1CC(C)CN(C(=O)CSc2ccsc2[N+](=O)[O-])C1 (stereo not drawn) have a reported inhibition of at least 20%?
false (0)

Check this compound for inhibition at or above 20%: `CC[n+]1cc(C)ccc1/C=C/c1ccc(N(C)C)cc1`
true (1)

Check the entry COc1ccc(N=C2SC(C(=O)Nc3ccc(F)cc3)CC(=O)N2C)cc1 (stereo not drawn) : does inhibition equal or exceed 20%?
false (0)

Threshold query (inhibition >= 20%) on `O=C1NC[C@@H](c2ccccc2)OC(=O)[C@H](Cc2ccc(F)cc2)CC/C=C/C[C@H]1CC(=O)N(CCO)Cc1ccccc1`
true (1)

Tell me whether inhibition is at least 20% here: COc1ccc(N(C(=O)c2snc(C(N)=O)c2N)C(C(=O)NC2CCCC2)c2ccc(C)o2)c(OC)c1 (stereo not drawn)
false (0)

Could you verify whether the entry `COc1ccc(CNC2CCCCC2)cc1` shows inhibition of no less than 20%?
false (0)

Has `COc1ccc(CNC(=O)C2CCCC2)cc1` a recorded inhibition greater than or equal to 20%?
false (0)

Does the compound `Cc1ccc(C(=O)NCC(=O)O)s1` have recorded inhibition that is 20% or more?
false (0)

Quick check, inhibition >= 20%? `Cc1ccnc(NC(=O)C2CCN(S(=O)(=O)c3c(C)c(C)cc(C)c3C)CC2)c1`
true (1)

Please check the record `O=c1c(/C=N/O)coc2ccc(Cl)cc12` and state if its inhibition is at or above 20%.
false (0)

Is it the case that O=C1/C(=C/c2ccc(F)cc2)SC(=S)N1CCCC(=O)N1CCCCC1CCO (stereo not drawn) has inhibition reaching or exceeding 20%?
true (1)

Say whether `CN(C)S(=O)(=O)c1ccc(N2CCCC2)c(C(=O)Nc2ccc(Br)cc2F)c1` shows inhibition of 20% or more.
false (0)
